test system: INS-1E rat beta cells, no cytokines, CellTiter-Glo ATP, 48 h; experiment: cytokine-free beta-cell viability effect – INS-1E rat cells, ATP luminescence, cherry pick, counter-screen for beta-cell apoptosis protection project, dose response (AID 463229)
measurement-name: AC50

INSERT INTO measurements (compound, measurement_name, meas_value) VALUES
  ('Clc1ccc2nnnc(-c3ccccc3)c2c1', 'AC50', '7.48 µM'),
  ('O=NN(CCc1ccncc1)c1ccc(OCc2ccccc2)cc1', 'AC50', '8.16 µM'),
  ('CCN(CC)CCOc1ccc2c(c1)C(=NNC(=O)c1ccccn1)c1cc(OCCN(CC)CC)ccc1-2', 'AC50', '13.8 µM'),
  ('Cc1ccc(NC(=O)CCC(=O)N/N=C/c2ccc([N+](=O)[O-])o2)cc1C', 'AC50', '19.8 µM'),
  ('CC(C)(C)c1ccc(C2CC2C(=O)N/N=C\c2ccc[nH]2)cc1 (stereo not given)', 'AC50', '0.987 µM');

For the compound C=C(C=O)C[C@@H]1C[C@H](O)C2OC3C[C@]4(C)OC5/C=C\CC6OC7C(CC=CCC6OC5CCCC4OC3CC2O1)OC1CC2OC3CC(=O)OC3C[C@@H](C)C[C@@]2(C)OC1C[C@@H]7C (stereo not given in full) , give its measured AC50 value.
3.79 µM

Determine its reported AC50: O=C(N/N=C\c1cc(Br)ccc1O)c1ccc(S(=O)(=O)N2CCCCC2)cc1
3.54 µM
